Recorded values, source patent US20180244785A1.

Target: T1, soluble FGFR3c receptor protein (human, UniProt P22607 141-372)
T1 sequence: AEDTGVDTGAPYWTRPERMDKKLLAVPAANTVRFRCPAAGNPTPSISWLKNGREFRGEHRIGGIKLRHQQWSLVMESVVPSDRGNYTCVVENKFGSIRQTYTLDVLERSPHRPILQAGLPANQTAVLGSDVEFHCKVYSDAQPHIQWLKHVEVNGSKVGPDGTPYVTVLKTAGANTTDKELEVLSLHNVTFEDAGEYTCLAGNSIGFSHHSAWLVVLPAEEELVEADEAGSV
Assay: BLI Octet RED96, antibody on anti-hIgG Fc tip
Measure: kon (M⁻¹ s⁻¹)
Kindly answer with a numeric value in M⁻¹ s⁻¹, unit omitted.

Reference set (3 entries):
Ab92 (antibody, human IgG2, kappa, V domains shown, format in the assays not spelled out) VH: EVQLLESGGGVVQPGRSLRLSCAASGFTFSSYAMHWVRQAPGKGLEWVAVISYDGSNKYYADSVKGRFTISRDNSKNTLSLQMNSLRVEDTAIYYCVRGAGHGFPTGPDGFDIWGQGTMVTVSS VL: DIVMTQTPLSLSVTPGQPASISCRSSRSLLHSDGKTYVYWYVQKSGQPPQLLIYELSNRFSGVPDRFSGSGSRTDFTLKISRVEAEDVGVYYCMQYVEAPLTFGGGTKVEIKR = 75600
Vk2 combined with the VH of Ab15 (antibody, V domains shown, captured on anti-human IgG Fc tips) VH: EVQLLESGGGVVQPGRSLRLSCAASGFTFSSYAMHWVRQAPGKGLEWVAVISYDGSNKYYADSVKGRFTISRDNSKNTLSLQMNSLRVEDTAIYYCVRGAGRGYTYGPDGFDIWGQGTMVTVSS VL: DIVMTQTPLSLSVTPGQPASISCTSSRSLLHSDGKTYVYWYLQKPGQPPQLLIYELSNRFSGVPDRFSGSGSRTDFTLKISRVEAEDVGVYYCMQYIEAPLTFGGGTKVEIK = 120000
Vk5 combined with the VH of Ab15 (antibody, V domains shown, captured on anti-human IgG Fc tips) VH: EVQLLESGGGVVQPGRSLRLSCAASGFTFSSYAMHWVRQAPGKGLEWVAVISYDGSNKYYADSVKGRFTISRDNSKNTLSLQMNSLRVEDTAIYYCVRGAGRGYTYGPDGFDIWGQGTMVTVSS VL: DIVMTQTPLSLSVTPGQPASISCRSSRSLLHSDGKTYVYWYLQKPGQPPQLLIYELSNRFSGVPDRFSGSGSGTDFTLKISRVEAEDVGVYYCMQYIEAPLTFGGGTKVEIK = 127000

Short answer for Ab19 (antibody, human IgG2, kappa, V domains shown, format in the assays not spelled out) VH: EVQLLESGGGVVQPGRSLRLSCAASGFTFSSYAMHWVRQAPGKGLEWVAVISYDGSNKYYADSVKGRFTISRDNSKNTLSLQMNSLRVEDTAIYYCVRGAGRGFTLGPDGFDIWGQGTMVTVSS VL: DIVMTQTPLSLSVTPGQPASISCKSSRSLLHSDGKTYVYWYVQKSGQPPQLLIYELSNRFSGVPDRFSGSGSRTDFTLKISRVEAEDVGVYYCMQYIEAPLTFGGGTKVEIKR : kon was 151000
